experiment: NCI Yeast Anticancer Drug Screen. Data for the mec2-1 strain (AID 157); conditions: S. cerevisiae mec2-1 strain, at 50.0 µM
Compounds without any hit were thinned out: in the full panel of roughly 79,000, 15% have a hit. Calls of active or inactive are those of the source. Cut-off read from the data, not from the text of the source: active = growth inhibition above about 70%; inactive = the rest.
Labels: yes (1) (active), no (0) (inactive)

| COMPOUND | CLASS_NAME |
| --- | --- |
| C[N+](C)(CCNc1ccc(NCC[N+](C)(C)Cc2ccc([N+](=O)[O-])cc2)c2c1C(=O)c1c(O)ccc(O)c1C2=O)Cc1ccc([N+](=O)[O-])cc1 | yes (1) |
| CN=C(NC#N)NCCSCc1nc[nH]c1C | no (0) |
| COc1ccc(C(=O)C(C(=O)C(=O)Nc2ccc(Cl)c(Cl)c2)c2ccc(OC)cc2)cc1 (stereo not drawn) | no (0) |
| COc1ccc(/C=C/c2ccc3ccccc3n2)cc1 | no (0) |
| CCCCC(NC(=O)c1cnc2ccccc2n1)C(=O)O (stereo not drawn) | no (0) |
| O=C(O)c1c(F)c(F)c(-c2c(F)c(F)c(C(=O)O)c(C(=O)O)c2F)c(F)c1C(=O)O | no (0) |
| CN(C)c1ccc(C2c3c(oc4ccccc4c3=O)Oc3oc4ccccc4c(=O)c32)cc1 | no (0) |
| O=C(CC(c1ccccc1)C(Sc1ccccc1)(Sc1ccccc1)Sc1ccccc1)c1ccccc1 (stereo not drawn) | no (0) |
| Cn1nnnc1/C(=C/c1ccccc1)C(=O)O | no (0) |
| Cc1cccc(C)c1C | no (0) |
| C=C(CCCC(=C)C(N)=O)C(N)=O | no (0) |
| C(=C\c1ccccc1)/C=N/N=C/C=C/c1ccccc1 | no (0) |
| c1ccc(-c2csc3[n+]2CCN3)cc1 | no (0) |
| CC(C)/C=C\C(=O)CC(C)C | no (0) |
| C=C(S(=O)(=O)c1ccccc1)S(=O)(=O)c1ccccc1 (tested in a mixture with another compound) | yes (1) |
| O=C(O)C(=O)Cc1ccc(Br)cc1[N+](=O)[O-] | no (0) |
| O=C(O)C1CC=CCC1C(=O)O (stereo not drawn) | no (0) |
| CCOC(=O)CC(=O)c1ccccc1SC | no (0) |
| Cc1cc2c(-c3ccc(Cl)cc3)oc(-c3ccc(Cl)cc3)c2cc1C | no (0) |
| CC(C)CCOC(=O)c1ccccc1OC(=O)Nc1ccc(Cl)cc1[N+](=O)[O-] | no (0) |
| Nc1cc2c(cc1/C=C1\CCNC1=O)OCO2 | no (0) |
| CNC(=O)OCc1c(COC(=O)NC)c(-c2cccs2)n2c1CCC2 | no (0) |
| Nc1ccc(C(=O)NCCCC(=O)O)cc1 | no (0) |

###

experiment: NCI Yeast Anticancer Drug Screen. Data for the mec2-1 strain (AID 157); conditions: S. cerevisiae mec2-1 strain, at 50.0 µM, hits give high values
This is part of a sample that, as a whole, favours compounds with a hit. Of some 79,000 tested, about 15% had one in any assay.
Binary classification by growth inhibition, with 10% as an inclusive lower bound for 1; all other cases are -1.

| MOLECULE | CLASS_NAME |
| --- | --- |
| C=C(C)COc1ccc(C)cc1Br | -1 |
| CCCCCCCNC(C)=O | 1 |
| CCCC(C)CCCC(=O)c1ccc2cc(OC)ccc2c1 (configuration not stated) | -1 |
| CCCCCCCCNC(C(=O)c1ccccc1)c1ccccc1 (configuration not stated) | 1 |
| c1ccc(C2OC(c3ccccc3)c3ccccc32)cc1 (configuration not stated) | -1 |
| O=C(NCCCl)NCc1ccccc1 | -1 |
| Cc1nc(=O)n2c(c1C(=O)Nc1ccc(Cl)cc1)NCC2 | -1 |
| CSC(=S)n1nc(C)c(N=Nc2ccccc2[N+](=O)[O-])c1C | -1 |
| CN(C)c1ccc(N=Nc2ccc3nc[nH]c3c2)cc1 | -1 |
| S=c1[nH]n(-c2ccccc2)c(=S)s1 | -1 |
| CCOC(=O)C(O)Cc1ccc(N)cc1 (configuration not stated) | 1 |
| CC(Cc1ccccc1)c1ccccc1 (configuration not stated) | 1 |
| CCCn1cnc2c(SCC(=O)O)nc(N)nc21 | -1 |
| O=C(OCC1OC(OC(=O)c2ccccc2)C(F)C1OC(=O)c1ccccc1)c1ccccc1 (configuration not stated) | -1 |
| C=Cc1nnnn1C | 1 |
| O=NN(CCCl)C(=O)/N=N/C(=O)N(CCCl)N=O | -1 |
| N#CC1(NC2CCCCC2)CCN(Cc2ccccc2)CC1 | -1 |
| C=CCN(CC=C)C(=S)NC(=O)c1ccccc1 | 1 |
| O=C1CC(c2ccccc2)Oc2cc(O)cc(O)c21 (configuration not stated) | -1 |
| CCCC(CCC)(C(=O)OCC)C(=O)OCC | -1 |
| CC1(C)CCCOc2cccc(c2)OCCCC(C)(C)C1=O | -1 |
| CC1(c2nc3ccccc3s2)CCCO1 (configuration not stated) | 1 |
| N#Cc1nc(C2=C(Cl)c3ccccc3OC2)[nH]c1C#N | 1 |
| CCC(C)N=Cc1ccccc1O.CCC(C)N=Cc1ccccc1O.[Cu] (configuration not stated) | -1 |
| O=C(/C=C(\Cl)c1ccc2c(c1)OCO2)OC/C=C\c1ccc2c(c1)OCO2 | -1 |
| O=CNc1ccccc1O | -1 |

###

assay: NCI Yeast Anticancer Drug Screen. Data for the cln2 rad14 strain (AID 165);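 note: 0% = growth equal to vehicle treated cultures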; conditions: S. cerevisiae cln2 rad14 strain, at 50.0 µM, hits give high values
This is part of a sample that, as a whole, favours compounds with a hit. Of some 79,000 tested, about 15% had one in any assay.
This listing pairs compounds with measured growth inhibition.
REPORTED_PROPERTY: growth inhibition (%)

| COMPOUND | REPORTED_PROPERTY | ENDPOINT_RESULT |
| --- | --- | --- |
| CC1CC(=O)c2cc3oc(=O)n(C)c3cc21 (centres undefined) | growth inhibition | -20.5 |
| CCN(CC)C1=Nc2ccccc2N(c2ccccc2)C(SC)=C1 | growth inhibition | -6.45 |
| C=CCOc1ccc(S(=O)(=O)c2ccc(OCC=C)cc2)cc1 | growth inhibition | -27.7 |
| COC(=O)c1c2c(cc3nc4ccccc4nc13)OCO2 | growth inhibition | -1.8 |
| COc1ccc(C(O)c2ncccc2C)cc1OC (centres undefined) | growth inhibition | -9.35 |
| CCCCCCCCCCCO | growth inhibition | -6.8 |
| COc1ccc(Cl)cc1[N+](=O)[O-] | growth inhibition | 9.5 |
| C=C(C)Cc1cc(C(CC)C(CC)c2ccc(O)c(CC(=C)C)c2)ccc1O (centres undefined) | growth inhibition | 34.3 |
| COc1ccc(-c2cc3cc(CCCOC4OC(COC5OCC(O)C(O)C5O)C(O)C(O)C4O)cc(OC)c3o2)cc1OC (centres undefined) | growth inhibition | 23.8 |
| CCC(=O)Nc1cc(C)c(C)cc1C | growth inhibition | -42 |
| Nc1cc(Cl)ccc1S(=O)(=O)O | growth inhibition | -48.8 |
| CC(=O)OCC1OC(Nc2[nH]c(=O)n(C)c(=O)c2-c2csc(N)n2)C(OC(C)=O)C(OC(C)=O)C1OC(C)=O (centres undefined) | growth inhibition | 27.4 |
| CC(O)(c1cccc(OCc2ccccc2)c1)c1ccccn1 (centres undefined) | growth inhibition | -11.4 |
| O=C1C(SCCO)=C(SCCO)C(=O)c2[nH]cnc21 | growth inhibition | -0.85 |
| CNC(=O)N(C)c1cc(N(C)C)nc(OC)n1 | growth inhibition | -9.4 |
| Nc1ccc(Cl)cc1C(=O)Oc1ccccn1 | growth inhibition | -0.4 |
| OCc1ccccc1C(c1ccc(O)cc1)c1ccc(O)cc1 | growth inhibition | 18 |
| CCC(C(C)=O)C(C)=O | growth inhibition | -24.2 |
| Cc1c(Cl)cccc1NC(=O)Nc1ccccc1F | growth inhibition | 19.2 |
| CN(C)c1cccc(/C=C(\C#N)c2ccccc2)c1 | growth inhibition | 28.8 |
| O=[N+]([O-])c1ccc(O)c(C=NCCCN=Cc2cc([N+](=O)[O-])ccc2O)c1 | growth inhibition | -6.95 |
| CC1CCOC(c2ccc(O)cc2)O1 (centres undefined) | growth inhibition | -29.3 |
| Cc1ccc(N2C(=O)c3ccccc3NC2(C)CCl)cc1 (centres undefined) | growth inhibition | -3.7 |
| COc1cc(OC)cc(C(NC(C)=O)NC(C)=O)c1 | growth inhibition | -31.2 |
| CCCC(CCC)(C(=O)OCC)C(=O)OCC | growth inhibition | -15.4 |
| Cc1cc(C(C)(C)C)cc(Cc2cc(C(C)(C)C)cc(Cc3cc(C(C)(C)C)cc(C)c3O)c2O)c1O | growth inhibition | -13.3 |
| COc1ccc(C2C3=CONC3CC3CCCCC32)cc1 (centres undefined) | growth inhibition | 8.25 |
| CC1(c2ccc(-c3ccccc3)cc2)NC(=O)NC1=O (centres undefined) | growth inhibition | -22.5 |
| COc1cc(-c2c(C)c(C)nc(OC)c2C#N)cc(OC)c1OC | growth inhibition | -19.1 |
| N#CC(c1ccc(O)cc1)N1CCN(C(C#N)c2ccc(O)cc2)CC1 (centres undefined) | growth inhibition | -26.8 |
| CCc1ccc[n+](CCc2c[nH]c3ccccc23)c1 | growth inhibition | 1.35 |
| COc1cc(CC(=O)c2ccc3c(c2)OCO3)cc(OC)c1OC | growth inhibition | -15.5 |
| CC(=O)C(c1ccccc1)N(CCO)Cc1ccccc1 (centres undefined) | growth inhibition | 28.6 |
| CCC12C=CCN(CCc3c([nH]c4ccccc34)/C=C\1)C2 (centres undefined) | growth inhibition | -1.6 |
| O=C(O)c1nnn(Cc2ccccc2)c1C(=O)O | growth inhibition | 2.35 |
| Cc1ccc(NC(=O)C(=O)CC(=O)c2c(C)n([O-])c3ccccc3[n+]2=O)cc1C | growth inhibition | 9.35 |
| NC1CCCCCC1 | growth inhibition | 3.25 |
| CN=NNc1ccc(C(=O)NC(C)C)cc1 | growth inhibition | -1.15 |
| CC1(C)CC(NC(=O)C(C)(C)Oc2ccc(Cl)cc2)CC(C)(C)N1 | growth inhibition | -12 |
| S=C(NNC(=S)Nc1ccccc1)Nc1ccccc1 | growth inhibition | -1.15 |
| Cc1cnc(SC(C)(C)C)c(C)c1 | growth inhibition | -68.6 |
| CC1(C)Nc2cc3c(cc2-n2cccc21)oc1ccccc13 | growth inhibition | 45.6 |
| CC(=O)Oc1c(C)cc2c(c1C)C(C)CN2C(C)=O (centres undefined) | growth inhibition | -18.9 |
| CC([N+](=O)[O-])S(=O)(=O)c1ccccc1 (centres undefined) | growth inhibition | -7.45 |
| CCOC(=O)C(=O)c1c(C)[nH]c(C)c1C(=O)OCC | growth inhibition | -23.1 |
| COc1ccc(-c2c(C#N)c(N)nc(C)c2-c2ccccc2)cc1 | growth inhibition | -24.6 |
| O=C(O)c1cc(-c2ccccc2Cl)nc2cc3ccccc3cc12 | growth inhibition | 14.1 |
| Cc1cc(S(=O)(=O)Nc2n[nH]c(Nc3ccccc3)n2)c(SSc2cc(Cl)c(C)cc2S(=O)(=O)Nc2n[nH]c(Nc3ccccc3)n2)cc1Cl | growth inhibition | 11.9 |
| CCCCCP(=O)(CCCCC)C1CCCC1 | growth inhibition | 1.75 |
